# condition label: basic group
Grouping key: pKa. Bins: b0 (below 5), b1 (5 to below 9), b2 (9 or more)

Reference set, count: 6
{"compound": "N#CCCN", "class assignment": "b1"}
{"compound": "CC(N)CC1CCCCC1 (stereo unspecified)", "class assignment": "b2"}
{"compound": "CO[C@H]1C=CC2=CCN3CCC(CO)=C(CCO)[C@]23C1", "class assignment": "b1"}
{"compound": "CN(C)CCCO", "class assignment": "b2"}
{"compound": "Nc1ccc(-c2ccc([NH3+])cc2)cc1", "class assignment": "b0"}
{"compound": "Cc1cc(Cl)n(C)c2nc3ccccc3c1-2", "class assignment": "b1"}

Task item: Sort into band: "CCOC(=O)N1CCNCC1"
Reply: b1

Task item: Kindly identify the class of "CCCNc1ncnc2c1cnn2C" .
Reply: b0

Task item: Form field 'band' for "CCOCCN(C)c1ccccc1"
Reply: b0

====

# condition label: acidic group
measured property: pKa
Respond numerically, and do not add a unit to the figure.

Worked cases, answers included:
{"molecule": "Cc1cc(/N=N/c2ccc(S(N)(=O)=O)cc2)cc(C(=O)[O-])c1O", "pKa": 10.2}
{"molecule": "CN1CC(O)C2=C/C(=N\\O)C(=O)C=C21 (stereo unspecified)", "pKa": 8.6}
{"molecule": "Cc1ccc(C(=O)O)c(I)c1", "pKa": 3.2}
{"molecule": "COc1ccccc1/C=C\\C(=O)O", "pKa": 4.27}
{"molecule": "O=[N+]([O-])C(CO)CO", "pKa": 9.07}
{"molecule": "O=C1COC(=O)C1[N+](=O)[O-] (stereo unspecified)", "pKa": 1.68}
{"molecule": "O=C1CC(S)C(=O)N1 (stereo unspecified)", "pKa": 6.65}
{"molecule": "COc1cccc(S)c1", "pKa": 6.39}
{"molecule": "COc1cccc(=O)c(O)c1", "pKa": 7.24}
{"molecule": "Cc1ccc(C(=S)Nc2ccccc2)cc1", "pKa": 11.5}

Task item: Please look up its pKa: "Sc1[nH+]ccc2ccccc12"
Reply: -1.9

Task item: Consider the molecule shown here: "ONc1ccnc2ccccc12" What is its recorded pKa?
Reply: 6.76

Task item: What value of pKa has been recorded for this entry: "O/N=C/c1cccnc1"
Reply: 10.3

====

# condition label: acidic group
Cut-off 7 on pKa, inclusive. At or above means True; below means False.

Solved cases below.
{"compound": "Cc1ccc(S(=O)(=O)N[C@@H](CCC(N)=O)C(=O)[O-])cc1", "class assignment": "True"}
{"compound": "[NH3+][C@@H](CCCCN1C(=O)C[C@H]([NH3+])C1=O)C(=O)O", "class assignment": "False"}
{"compound": "C[C@H]1O[C@H](O[C@H]2CC[C@H]([n+]3ccc(N)nc3O)O[C@@H]2C)[C@H](O)[C@@H](O)[C@@H]1[NH+](C)C", "class assignment": "False"}
{"compound": "OC(O)=C1c2ccccc2-c2ccccc21", "class assignment": "False"}

Now take the following compound into account.
Task item: Say whether "Cc1ccc(O)c(Cc2cc(C)cc([N+](=O)[O-])c2[O-])c1" shows pKa of 7 or more.
Reply: True

====

# condition label: acidic group
Listed next: entries and their corresponding pKa.
API doc: respond with a numeric literal and nothing else, no unit.

Before answering, review these 5 worked examples.
{"compound": "O=C(O)[C@@H]1O[C@H](Oc2ccc3ccc[nH+]c3c2)[C@@H](O)[C@H](O)[C@H]1O", "measured property": "pKa", "assay result": 3}
{"compound": "CC([NH3+])C(=O)O (stereo not drawn)", "measured property": "pKa", "assay result": 2.36}
{"compound": "CC1CCCC(=O)C1=O (stereo not drawn)", "measured property": "pKa", "assay result": 11.2}
{"compound": "O=C(C[n+]1cccc2c3ccccc3ccc21)c1ccc(-c2ccccc2)cc1", "measured property": "pKa", "assay result": 11.2}
{"compound": "O/N=C/C(Cl)=N\\O", "measured property": "pKa", "assay result": 8.24}

Task item: Would you mind telling me what pKa value was observed for "Nn1cnnc1S" ?
Reply: 7.47

Task item: Suppose we examine the compound "NNC(=O)c1ccccn1" ; what pKa value has been reported?
Reply: 11.8

Task item: Endpoint output: pKa of "O=C(O)c1ccc2cc3ccccc3cc2c1" . Value?
Reply: 4.18

Task item: # input compound: "CC(C)[C@H]([NH3+])C(=O)O" ; wanted: its pKa
Reply: 2.32

Task item: Bench note: what pKa did CC(c1ccc([N+](=O)[O-])cc1)[N+](=O)[O-] (stereo not drawn) show?
Reply: 6.51

====

# condition label: basic group
Output fulfilled for pKa not less than 5; output not fulfilled otherwise.

# example entries with known answers
{"compound": "CCCCc1cccnn1", "class assignment": "not fulfilled"}
{"compound": "CCOC(=O)c1cccnc1", "class assignment": "not fulfilled"}
{"compound": "CNc1c(C)cccc1C", "class assignment": "fulfilled"}
{"compound": "C1=C(c2nc3ccccc3s2)C2CCN1CC2", "class assignment": "fulfilled"}
{"compound": "Cc1ccc(N2CCCC(=O)C(O)CCC2)cc1 (centres undefined)", "class assignment": "not fulfilled"}

Task item: Tell me whether pKa is at least 5 here: "NCCCNCCO"
Reply: fulfilled

Task item: Is it the case that "OCCn1cnc2ccccc21" has pKa reaching or exceeding 5?
Reply: fulfilled

Task item: Does pKa meet or surpass 5 for "CCN(CC)c1ccccc1C" ?
Reply: fulfilled

====

# condition label: basic group
# label = Y if pKa >= 7 else N

As a guide, the following entries are already answered.
{"compound smiles": "NC(=[NH2+])Nc1nccc(-c2csc(N)n2)n1", "class assignment": "N"}
{"compound smiles": "CN(C)CCCCCCCCNC(=O)/C=N/[O-]", "class assignment": "Y"}
{"compound smiles": "O=C(N/N=C/c1ccccc1O)c1ccncc1", "class assignment": "N"}

As a next step, examine the compound that follows.
Task item: Is pKa for "CC(C)=NNC1CCN(C)CC1" at or above 7?
Reply: Y

====

# condition label: acidic group
measured property: pKa
API doc: respond with a numeric literal and nothing else, no unit.

Some compounds with recorded pKa:
{"compound": "CC(/N=N/O)c1ccccc1 (centres undefined)", "assay result": 8.32}
{"compound": "C/N=C(/SC)c1ccccc1", "assay result": 6.42}

Task item: # pKa lookup, item "O=C(O)C12CC3(F)CC(F)(CC(F)(C3)C1)C2"
Reply: 3.24

Task item: Sample "Nc1ccc(O)cc1[O-]" — what was its pKa?
Reply: 11.3

Task item: Quick check: pKa of "O=C(O)[C@H]1C[C@@H]1c1ccc(Cl)cc1" ?
Reply: 4.53

Task item: What does the record list as pKa for "c1ccc(-c2nc3cnccc3[nH]2)cc1" ?
Reply: 10.3

Task item: # lookup: pKa of "CC(C)=CCC1=C(O)[C@](O)(CC=C(C)C)C(=O)C(C(=O)CC(C)C)=C1O"
Reply: 4.22

====

Here the recorded pKa is given for each entry.
# condition label: basic group
Provide a numeric answer; units are not to be included.

Examples with their reported pKa follow.
{"molecule": "CN(C)c1ccc2c(c1)Sc1cc(N(C)C)ccc1N2", "pKa": 5.53}
{"molecule": "NCCC#CC#CCCC(=O)[O-]", "pKa": 9.27}
{"molecule": "C1N2CN3CN1C[NH+](C2)C3", "pKa": -1.7}
{"molecule": "CCC[C@H]1NC(C(=O)[O-])CS1 (some centres not stated)", "pKa": 6.25}
{"molecule": "COc1nc2ccccc2[nH]1", "pKa": 3.75}
{"molecule": "O=[N+]([O-])c1ccc(/C=N/c2ncccn2)cc1", "pKa": 3.12}

Task item: GET /values?readout=pKa&item= "O=CC(c1ccccc1)c1ccccc1"
Reply: 9.42

Task item: Looking for the measured pKa of "CCCCCCCCCCNCc1ccc(C)cc1" , can you help?
Reply: 9.48

Task item: Please look up its pKa: "Cc1c(O)c(=O)n(-c2ccccc2)n1C"
Reply: -0.22

Task item: For "Nc1ncnc([S-])c1N" , what is its reported pKa?
Reply: 9.34

Task item: Given the entry "CCNCC#CCNCC" , report its measured pKa.
Reply: 8.32

Task item: Form field: reported pKa of "c1ccc(-c2ccc3nccn3n2)cc1"
Reply: 4.71

Task item: I am curious: what pKa value has been reported for "CSc1nc2cncnc2n1C" ?
Reply: 2.98

Task item: I would be grateful if you could share the reported pKa for "Nc1ncccc1C(=O)[O-]" .
Reply: 6.59

Task item: If you can, please state the reported pKa value of "c1cc([C@@H]2CCCN2)nc([C@@H]2CCCN2)c1" .
Reply: 10.1

Task item: I am curious: what pKa value has been reported for "C#CCN(C)C" ?
Reply: 7.05

Task item: Quick one: pKa for "CCN(CC)Cc1cc(Br)ccc1[O-]" ?
Reply: 10.7

Task item: For the molecule shown here, "C=CCN1CC[C@]23c4c5ccc(O)c4O[C@H]2[C@@H](O)C=C[C@H]3[C@H]1C5" , give the reported pKa.
Reply: 7.83

Task item: Look up pKa: "N#CN"
Reply: 1.1

Task item: Which pKa value belongs to CC(Cc1ccccc1)N(C)CCC#N (configuration not stated) ?
Reply: 6.95

Task item: State the recorded pKa for this entry: "Cc1n[nH]c2c(NCc3ccccc3)ncnc12"
Reply: 4.95

Task item: State the recorded pKa for this entry: "Nc1nc2nc[nH]c2c(N)[n+]1[O-]"
Reply: 3.7

Task item: Name the reported pKa value associated with the molecule "Cc1ccc(NN=C(C#N)C#N)c([N+](=O)[O-])c1"
Reply: -0.78

Task item: What value of pKa has been recorded for this entry: "CC1=CCCCN1C"
Reply: 11.4

Task item: Give its pKa value. Item: "CCCCC/C(N)=N/N(C)C"
Reply: 10.4

Task item: What value of pKa has been recorded for this entry: "CN(C)CCc1c[nH]c2ccc([O-])cc12"
Reply: 11.2

Task item: Consider the molecule shown here: "NCC[NH3+]" What is its recorded pKa?
Reply: 7.14

Task item: Given the entry "[O-][n+]1cccc2ccccc21" , report its measured pKa.
Reply: 0.7

Task item: Please give the measured pKa for this molecule: "C[NH+](C)C[C@H]1[C@@H]2CC[C@@](C)([C@H]1N)C2(C)C"
Reply: 6.59

Task item: GET /values?readout=pKa&item= "NCCc1ccc(O)cc1"
Reply: 9.45

Task item: Give the measured pKa of "Cc1cccnc1N" .
Reply: 7.24

Task item: Record request: pKa value, item "CCCNCC(=O)O"
Reply: 10
